Biological target: T1, full-length, wild-type human KIT expressed on CHO cells (human, UniProt P10721 26-976)
T1 construct: also called CHO/KIT-WT; CHO-KIT cells
T1 sequence (P10721 other isoform, or with tags, fused parts or gaps limits assumed): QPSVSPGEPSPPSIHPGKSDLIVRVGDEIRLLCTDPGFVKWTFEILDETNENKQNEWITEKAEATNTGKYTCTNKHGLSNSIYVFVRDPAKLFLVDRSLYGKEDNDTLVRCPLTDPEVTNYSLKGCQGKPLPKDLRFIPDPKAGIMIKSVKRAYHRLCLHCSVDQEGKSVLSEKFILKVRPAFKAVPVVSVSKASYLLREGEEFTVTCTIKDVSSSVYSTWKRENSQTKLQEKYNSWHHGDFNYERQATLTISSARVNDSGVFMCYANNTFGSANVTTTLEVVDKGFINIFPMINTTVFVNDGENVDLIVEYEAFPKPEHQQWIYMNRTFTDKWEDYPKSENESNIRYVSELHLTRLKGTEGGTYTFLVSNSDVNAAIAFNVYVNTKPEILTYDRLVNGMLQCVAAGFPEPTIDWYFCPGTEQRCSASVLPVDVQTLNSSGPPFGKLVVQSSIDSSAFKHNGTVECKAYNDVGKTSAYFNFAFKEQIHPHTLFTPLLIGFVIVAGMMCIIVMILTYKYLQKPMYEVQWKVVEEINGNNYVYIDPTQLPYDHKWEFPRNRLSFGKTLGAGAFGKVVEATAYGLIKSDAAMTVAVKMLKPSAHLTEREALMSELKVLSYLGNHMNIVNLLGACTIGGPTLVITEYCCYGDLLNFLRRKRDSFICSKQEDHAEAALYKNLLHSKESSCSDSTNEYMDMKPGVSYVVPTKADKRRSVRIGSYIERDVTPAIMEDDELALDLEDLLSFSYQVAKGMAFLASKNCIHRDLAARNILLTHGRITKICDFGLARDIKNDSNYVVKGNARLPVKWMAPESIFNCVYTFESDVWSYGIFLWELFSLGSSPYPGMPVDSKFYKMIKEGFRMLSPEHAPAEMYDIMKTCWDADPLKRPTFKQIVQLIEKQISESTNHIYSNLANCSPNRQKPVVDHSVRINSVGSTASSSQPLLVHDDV
Test: flow cytometry on CHO cells expressing full-length wild-type human KIT (FIG. 6)
Test readout: EC50

Example entries begin here.
binder="Hum4 (antibody, V domains shown) VH: QVQLVQSGAEVKKPGASVKVSCKASGYTFTDYYINWVRQAPGKGLEWIARIYPGSGNTYYNEKFKGRATITADKSTSTAYMELSSLRSEDTAVYFCARGVYYFDYWGQGTTVTVSS VL: DIVMTQSPSFLSASVGDRVTITCKASQNVRTNVAWYQQKPGKAPKALIYSASYRYSGVPDRFTGSGSGTDFTLTISSLQSEDFADYFCQQYNSYPRTFGGGTKVEIK" result="~0.106 nM"
binder="chimeric antibody 37C (antibody, V domains shown, also called chimera of antibody 37M; chimera) VH: QVQLKQSGAELVRPGASVKLSCKASGYTFTDYYINWVKQRPGQGLEWIARIYPGSGNTYYNEKFKGKATLTAEKSSSTAYMQLSSLTSEDSAVYFCARGVYYFDYWGQGTTLTVSA VL: DIVMTQSQKFMSTSVGDRVSVTCKASQNVRTNVAWYQQKPGQSPKALIYSASYRYSGVPDRFTGSGSGTDFTLTISNVQSEDLADYFCQQYNSYPRTFGGGTKLEIK" result="~0.047 nM"
binder="Hum8 (antibody, V domains shown) VH: QVQLVQSGAEVKKPGASVKLSCKASGYTFTDYYINWVRQAPGKGLEWIARIYPGSGNTYYNEKFKGRATLTADKSTSTAYMQLSSLRSEDTAVYFCARGVYYFDYWGQGTTVTVSS VL: DIVMTQSPSSLSASVGDRVTITCKASQNVRTNVAWYQQKPGKAPKALIYSASYRYSGVPDRFTGSGSGTDFTLTISSLQPEDFADYFCQQYNSYPRTFGGGTKVEIK" result="~0.083 nM"
binder="Hum10 (antibody, V domains shown) VH: QVQLVQSGAEVKKPGASVKVSCKASGYTFTDYYINWVRQAPGKGLEWIARIYPGSGNTYYNEKFKGRVTITADKSTSTAYMELSSLRSEDTAVYFCARGVYYFDYWGQGTTVTVSS VL: DIVMTQSPSSLSASVGDRVTITCKASQNVRTNVAWYQQKPGKAPKALIYSASYRYSGVPDRFTGSGSGTDFTLTISSLQPEDFADYFCQQYNSYPRTFGGGTKVEIK" result="~0.132 nM"

Note: attention shifts to another entry.
Name the reported EC50 value associated with the binder Hum17 (antibody, V domains shown) VH: QVQLVQSGAEVKKPGASVKLSCKASGYTFTDYYINWVKQAPGKGLEWIARIYPGSGNTYYNEKFKGRATLTAEKSTSTAYMQLSSLRSEDTAVYFCARGVYYFDYWGQGTTVTVSS VL: DIVMTQSPSSLSASVGDRVTITCKASQNVRTNVAWYQQKPGKAPKSLIYSASYRYSGVPDRFSGSGSGTDFTLTISSLQPEDFATYYCQQYNSYPRTFGGGTKVEIK
~0.139 nM
